The reported numbers originate from ChEMBL document CHEMBL1255247.

Kindly supply the reported MIC values for the records listed here.
- Tested on: Stenotrophomonas maltophilia
- experiment: Antibacterial activity against Stenotrophomonas maltophilia isolate KJ deficient in L2 beta lactamase gene by Etest
- Type: functional
Kindly answer with a numeric value in µg/mL, unit omitted.

## Input Would you kindly share the measured MIC for CO/N=C(\C(=O)N[C@@H]1C(=O)N2C(C(=O)O)=C(CSc3nc(=O)c(O)nn3C)CS[C@H]12)c1csc(N)n1 ?
## Output 128

## Input Would you kindly share the measured MIC for CO/N=C(\C(=O)N[C@@H]1C(=O)N2C(C(=O)O)=C(COC(C)=O)CS[C@H]12)c1csc(N)n1 ?
## Output 128

## Input Would you kindly share the measured MIC for CCN1CCN(C(=O)N[C@@H](C(=O)N[C@@H]2C(=O)N3[C@@H]2SC(C)(C)[C@@H]3C(=O)O)c2ccccc2)C(=O)C1=O ?
## Output 512

## Input Would you kindly share the measured MIC for CCN1CCN(C(=O)N[C@@H](C(=O)N[C@@H]2C(=O)N3C(C(=O)O)=C(CSc4nnnn4C)CS[C@H]23)c2ccc(O)cc2)C(=O)C1=O ?
## Output 64
